Values from patent US20230134571A1

# ASSAYED TARGET: HIV Env of isolate ZM249M.PL1 (clade C) (HIV)
# PROCEDURE SUMMARY: cell-based or functional assay
IC50 (µg/ml) with constrains values for the binders below.
Hi, when you answer, please include the unit after the number. Thanks!

Below: 3 binders and their reported IC50 (µg/ml) with constrains.
{"BINDER": "PGDM1400 (antibody, V domains shown) VH: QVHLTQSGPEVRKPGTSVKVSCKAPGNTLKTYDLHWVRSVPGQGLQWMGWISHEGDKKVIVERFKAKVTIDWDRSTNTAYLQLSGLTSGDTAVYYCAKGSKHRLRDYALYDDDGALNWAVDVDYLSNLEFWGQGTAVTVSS VL: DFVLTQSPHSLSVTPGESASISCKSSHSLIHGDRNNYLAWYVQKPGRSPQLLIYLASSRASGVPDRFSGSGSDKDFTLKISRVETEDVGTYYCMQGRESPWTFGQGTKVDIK", "IC50 (µg/ml) with constrains": "0.025 µg/mL"}
{"BINDER": "ePGDM9 (antibody, V domains shown) VH: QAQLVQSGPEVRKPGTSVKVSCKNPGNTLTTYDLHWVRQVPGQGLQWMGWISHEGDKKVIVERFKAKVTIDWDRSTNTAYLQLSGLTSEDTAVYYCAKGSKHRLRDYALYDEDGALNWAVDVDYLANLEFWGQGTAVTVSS VL: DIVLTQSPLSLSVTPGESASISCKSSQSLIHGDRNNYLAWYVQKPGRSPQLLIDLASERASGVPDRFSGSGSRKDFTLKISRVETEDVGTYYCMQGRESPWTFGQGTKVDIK", "IC50 (µg/ml) with constrains": "0.002 µg/mL"}
{"BINDER": "ePGDM5 (antibody, V domains shown) VH: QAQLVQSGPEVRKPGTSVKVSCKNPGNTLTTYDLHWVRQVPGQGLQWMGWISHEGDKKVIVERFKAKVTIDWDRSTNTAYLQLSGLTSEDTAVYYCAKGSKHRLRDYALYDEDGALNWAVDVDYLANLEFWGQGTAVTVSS VL: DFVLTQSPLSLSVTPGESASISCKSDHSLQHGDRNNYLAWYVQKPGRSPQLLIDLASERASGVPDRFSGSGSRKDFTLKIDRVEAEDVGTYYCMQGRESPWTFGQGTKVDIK", "IC50 (µg/ml) with constrains": "0.035 µg/mL"}

Please examine the following record next.
Ask | Name the reported IC50 (µg/ml) with constrains value associated with the binder ePGDM13 (antibody, V domains shown) VH: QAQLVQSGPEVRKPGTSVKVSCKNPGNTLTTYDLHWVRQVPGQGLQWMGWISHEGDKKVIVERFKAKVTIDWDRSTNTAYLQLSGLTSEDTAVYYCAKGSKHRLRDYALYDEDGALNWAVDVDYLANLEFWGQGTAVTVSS VL: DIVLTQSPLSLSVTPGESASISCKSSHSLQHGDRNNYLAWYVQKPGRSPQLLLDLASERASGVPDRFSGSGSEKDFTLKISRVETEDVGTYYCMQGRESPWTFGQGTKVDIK
Reply | 0.014 µg/mL
